# Test system: A673/TR/shEF
# experimentNotes: cell viability (LOESS-normalised, relative to median of negative controls) (log2 ratio); higher = more viable cells (less compound effect), active = hit call of the paper (over 3 MAD below the median)
# measurementParameters: 0.25 µM; library screen: screen1; EWS-FLI1 expression: low (doxycycline-induced shRNA knockdown); treatment time: 72 h
In all, about 3,200 compounds went through this assay and about 300 (9.4%) showed activity. The sample holds actives, similar compounds and a random draw of the others, so the mix is not that of the screen.
Rule: measured cell viability (log2) below 0.006 gets T; anything equal to or greater than 0.006 gets F.

Would you please look over these solved cases?
{"molecule": "N=c1ccn2c(n1)O[C@H]1[C@H](O)[C@@H](CO)O[C@H]12", "targetSystem": "A673/TR/shEF", "assignedClass": "F"}
{"molecule": "CC[C@H](C)C(=O)O[C@H]1CCC=C2C=C[C@H](C)[C@H](CC[C@@H]3C[C@@H](O)CC(=O)O3)[C@H]21", "targetSystem": "A673/TR/shEF", "assignedClass": "T"}
{"molecule": "O=c1oc2cc3occc3cc2c2oc3cc4c(cc3c12)OCO4", "targetSystem": "A673/TR/shEF", "assignedClass": "T"}
{"molecule": "CS(=O)(=O)CCCCN=C=S", "targetSystem": "A673/TR/shEF", "assignedClass": "F"}
{"molecule": "C[C@@H]1CC[C@@]2(OC1)O[C@H]1C[C@H]3[C@@H]4CC[C@H]5C[C@@H](O)CC[C@]5(C)[C@H]4C[C@@H](O)[C@]3(C)[C@H]1[C@@H]2C", "targetSystem": "A673/TR/shEF", "assignedClass": "F"}

Does the reported cell viability (log2) of CC(=O)O[C@H]1CC[C@@]2(C)C(CC[C@]3(C)C2CC=C2C4CC(C)(C)CC[C@]4(C)CCC23C)C1(C)C (stereo partly drawn) stay below 0.006?
F

A record lists NC(=O)c1ncn([C@@H]2O[C@H](CO)[C@@H](O)[C@H]2O)n1 . Is its cell viability (log2) below 0.006?
T

A record lists C[C@]12CCC3c4ccc(OS(=O)(=O)O)cc4CCC3C1CC[C@H]2O (stereo partly drawn) . Is its cell viability (log2) below 0.006?
F

Consider CCC(C)(C)C(=O)O[C@H]1C[C@@H](C)C=C2C=C[C@H](C)[C@H](CC[C@@H]3C[C@@H](O)CC(=O)O3)[C@H]21 . Does its cell viability (log2) lie strictly below 0.006?
T

====

# Test system: A673/TR/shEF
# experimentNotes: cell viability (LOESS-normalised, relative to median of negative controls) (log2 ratio); higher = more viable cells (less compound effect), active = hit call of the paper (over 3 MAD below the median)
# measurementParameters: 2.8 µM; library screen: screen3; EWS-FLI1 expression: low (doxycycline-induced shRNA knockdown); treatment time: 72 h
Among all 3,200 compounds or so, about 300 (9.4%) showed activity. The sample holds actives, similar compounds and a random draw of the others, so the mix is not that of the screen.
Lab note: compare cell viability (log2) with -0.02, writing class 1 if less and class 0 if equal or more.

Recorded results for 3 compounds are shown here.
{"compound": "Nc1cccc(-c2cc3c(Oc4cccc(O)c4)ncnc3[nH]2)c1", "assignedClass": "class 0"}
{"compound": "C[C@@H]1C/C=C/C=C/C=C/C=C/[C@H](OC2O[C@H](C)[C@@H](O)[C@H](N)[C@@H]2O)C[C@@H]2O[C@](O)(C[C@@H](O)C[C@H]3O[C@@H]3/C=C/C(=O)O1)C[C@H](O)[C@H]2C(=O)O (some centres undefined)", "assignedClass": "class 0"}
{"compound": "CN1CCN(CCOc2cc(OC3CCOCC3)c3c(Nc4c(Cl)ccc5c4OCO5)ncnc3c2)CC1", "assignedClass": "class 1"}

Dear colleague, could you confirm whether cell viability (log2) of CC[C@@]1(O)C(=O)OCc2c1cc1n(c2=O)Cc2cc3c(CN(C)C)c(O)ccc3nc2-1 falls below -0.02? Thanks.
class 1

Criterion: cell viability (log2) strictly below -0.02. Is it met by Clc1ccc(COC(Cn2ccnc2)c2ccc(Cl)cc2Cl)cc1 (centres undefined) ?
class 0

Criterion: cell viability (log2) strictly below -0.02. Is it met by Clc1ccc(COC(Cn2ccnc2)c2ccc(Cl)cc2Cl)c(Cl)c1 (centres undefined) ?
class 0

Dear colleague, could you confirm whether cell viability (log2) of COc1ccc(-c2ccc3c(N4CCOCC4)nc(N4C[C@@H](C)O[C@@H](C)C4)nc3n2)cc1CO falls below -0.02? Thanks.
class 1

Threshold test, cell viability (log2) < -0.02: C[C@H]1COC2=C1C(=O)C(=O)c1c2ccc2c1CCCC2(C)C
class 1

Does the reported cell viability (log2) of the following compound sit strictly below -0.02? CC[C@H](CO)Nc1nc(NCc2ccccc2)c2ncn(C(C)C)c2n1
class 0

Answer whether the compound CCC(C)(C)C(=O)O[C@H]1C[C@@H](C)C=C2C=C[C@H](C)[C@H](CC[C@@H]3C[C@@H](O)CC(=O)O3)[C@H]21 has cell viability (log2) strictly less than -0.02
class 1

Item c1ccc([C@H]2CN3CCSC3=N2)cc1 : cell viability (log2) beneath -0.02, strictly?
class 0

Criterion: cell viability (log2) strictly below -0.02. Is it met by CNC(=O)c1ccccc1Sc1ccc2c(/C=C/c3ccccn3)n[nH]c2c1 ?
class 0

State whether -0.02 exceeds cell viability (log2) recorded for CCN(CC)CC(=O)Nc1c(C)cccc1C .
class 0

Confirm or reject: cell viability (log2) of CCCCC1C(=O)N(c2ccccc2)N(c2ccccc2)C1=O lies strictly below -0.02
class 0

====

Measured cell viability (log2), listed per entry for reference.
# System: A673/TR/shEF
# experimentNotes: cell viability (LOESS-normalised, relative to median of negative controls) (log2 ratio); higher = more viable cells (less compound effect), active = hit call of the paper (over 3 MAD below the median)
# measurementParameters: 0.308 µM; library screen: screen3; EWS-FLI1 expression: low (doxycycline-induced shRNA knockdown); treatment time: 72 h
Among all 3,200 compounds or so, about 300 (9.4%) showed activity. Shown is part of a subset that was picked to be rich in actives.
Give the figure by itself; no unit, no explanation.

// worked examples, cell viability (log2) included
{"compound": "COc1ccc(-c2ccc3c(N4CCOC[C@@H]4C)nc(N4CCOC[C@@H]4C)nc3n2)cc1CO", "cell viability (log2)": -0.525}
{"compound": "O=c1[nH]cc(F)c(=O)[nH]1", "cell viability (log2)": 0.0726}
{"compound": "CC(C)n1c(/C=C/C(O)CC(O)CC(=O)O)c(-c2ccc(F)cc2)c2ccccc21 (centres undefined)", "cell viability (log2)": 0.108}
{"compound": "Cc1cn(-c2cc(NC(=O)c3ccc(C)c(Nc4nccc(-c5cccnc5)n4)c3)cc(C(F)(F)F)c2)cn1", "cell viability (log2)": 0.0807}
{"compound": "CCC(C)(C)C(=O)O[C@H]1C[C@@H](C)C=C2C=C[C@H](C)[C@H](CC[C@@H]3C[C@@H](O)CC(=O)O3)[C@H]21", "cell viability (log2)": 0.105}

Enter reported cell viability (log2) observed with A673/TR/shEF for Cc1ccc(NC(=O)c2ccc(CN3CCN(C)CC3)cc2)cc1Nc1nccc(-c2cccnc2)n1
0.125

# value lookup — system A673/TR/shEF, readout cell viability (log2), item COc1c(O)cc(C2Oc3c(c(O)cc(O)c3[C@H]3c4c(O)cc(O)cc4O[C@H](c4ccc(O)cc4)[C@@H]3O)C[C@H]2O)cc1O (some centres undefined)
-0.00938

Which cell viability (log2) is reported with A673/TR/shEF for this entry: C[C@H](NCCc1ccc(O)cc1)[C@H](O)c1ccc(O)cc1 ?
0.0395

What is its cell viability (log2) for A673/TR/shEF? Entry: Oc1ccc(OCc2ccccc2)cc1
0.0601

Tell me reported cell viability (log2) for Cc1ccc(NC(=O)c2ccc(CN3CCN(C)CC3)cc2)cc1Nc1nc(-c2cccnc2)cs1 , tested with A673/TR/shEF.
0.0956

Notebook: pull reported cell viability (log2) for A673/TR/shEF, entry CCCCCCCCc1ccc(CCC(N)(CO)CO)cc1
-0.0148

What reported cell viability (log2) corresponds to COc1c/c(=C2\C=c3ccccc3=N2)[nH]/c1=C\c1[nH]c(C)cc1C on A673/TR/shEF?
-0.107

State its cell viability (log2) on A673/TR/shEF: COC(=O)Nc1nc2ccc(Sc3ccccc3)cc2[nH]1
0.103

Form: Entry = CO[C@H]1CC2CC[C@@H](C)[C@@](O)(O2)C(=O)C(=O)N2CCCC[C@H]2C(=O)O[C@H]([C@H](C)C[C@@H]2CC[C@@H](OP(C)(C)=O)[C@H](OC)C2)CC(=O)[C@H](C)/C=C(\C)[C@@H](O)[C@@H](OC)C(=O)[C@H](C)C[C@H](C)/C=C/C=C/C=C/1C | System = A673/TR/shEF | cell viability (log2) = ____
-0.724

What value of cell viability (log2) on A673/TR/shEF does CN1CCCC(n2nc(Cc3ccc(Cl)cc3)c3ccccc3c2=O)CC1 (centres undefined) have?
0.0686

Give A673/TR/shEF cell viability (log2) for Nc1ccccc1NC(=O)c1ccc(CNc2nccc(-c3cccnc3)n2)cc1
0.0629

For A673/TR/shEF, provide cell viability (log2) of CCCCC1C(=O)N(c2ccccc2)N(c2ccccc2)C1=O please.
0.159

Recall the recorded cell viability (log2) for CCN(CC)CC(=O)Nc1c(C)cccc1C with A673/TR/shEF and state it.
0.127

Fill in the recorded cell viability (log2) for this compound, with A673/TR/shEF as test system: CNC(=O)c1ccccc1Sc1ccc2c(/C=C/c3ccccn3)n[nH]c2c1
0.044
